src = the supplement of paper PMC9112550

Tested on: Escherichia coli TOP10;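 also: peptides expressed intracellularly from a pBAD plasmid library in pooled LB shake-flask culture, induced with 0.3% L-arabinose, DNA abundance read by NGS, three biological replicates, DESeq2 with apeglm shrinkage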
Test: shrunken log2 fold change of peptide-encoding DNA abundance (4.5 h post-induction vs induction); higher = less antimicrobial activity (less host growth inhibition)
Conditions: time post-induction: 4.5 h; library: site-saturation at positions 5, 18, 19, 20
readout: shrunken log2 fold change
Answer using only a numeral; do not append any unit.

Quick note, shrunken log2 fold change for RRIRQRPPRLPRPRPRPLLAPRP landed at 0.328

Quick note, shrunken log2 fold change for RRIRYRPPRLPRPRPRPFGKPRP landed at -0.0625

Quick note, shrunken log2 fold change for RRIRHRPPRLPRPRPRPPKQPRP landed at -0.00419

Quick note, shrunken log2 fold change for RRIRARPPRLPRPRPRPCCNPRP landed at 0.278

Quick note, shrunken log2 fold change for RRIRERPPRLPRPRPRPHWCPRP landed at 0.0281

Quick note, shrunken log2 fold change for RRIRNRPPRLPRPRPRPYLTPRP landed at -0.332

Quick note, shrunken log2 fold change for RRIRIRPPRLPRPRPRPLNDPRP landed at -0.351

Quick note, shrunken log2 fold change for RRIRKRPPRLPRPRPRPVKKPRP landed at 0.505

Quick note, shrunken log2 fold change for RRIRRRPPRLPRPRPRPACNPRP landed at 0.654

Quick note, shrunken log2 fold change for RRIRERPPRLPRPRPRPYEVPRP landed at -0.448

Quick note, shrunken log2 fold change for RRIRVRPPRLPRPRPRPIEHPRP landed at -0.168

Quick note, shrunken log2 fold change for RRIRSRPPRLPRPRPRPHIAPRP landed at -0.255

Quick note, shrunken log2 fold change for RRIRLRPPRLPRPRPRPWHQPRP landed at 0.0225

Quick note, shrunken log2 fold change for RRIRDRPPRLPRPRPRPAECPRP landed at 0.232

Quick note, shrunken log2 fold change for RRIRDRPPRLPRPRPRPEFPPRP landed at -0.00168
